# experimentalTarget: MERS病毒N蛋白 (MERS病毒 (MERS-CoV), UniProt K9N4V7 1-411)
# runDescription: ELISA
reportedProperty: binding result

N83抗体 (N蛋白特异性单克隆抗体N83) (antibody, V domains shown) VH: QVQLQESGPRLVKSSETLSLTCTVSGGSISSGSYYWNWIRQPAGKGLEWIGRVYISGVTSYNPSLKSRVTISLDISKNQFSLQLTSVTAADSAVYYCARGGMAVGAPLYYYFYGMDVWGQGTTVTVSS VL: DVVMTQSPLSLPVTPGEPASISCRSSQSLLHSNGYNYVDWYLQKPGQSPQLMIYLGSNRASGVPDRFSGSGSGTHFTLKISRVEAEDVGVYYCMQALQTLSITFGQGTRLEIK	no binding
N31抗体 (N蛋白特异性单克隆抗体N31) (antibody, V domains shown) VH: QMQLVQSGAEVKKPGSSVKVSCKASGGTFSSYGISWVRQAPGQGLEWMGGIIPILGTANYAQRFQGRIALTADESTSTAYMEVSSLRSEDTAVYYCARGMWSNPPGYCCSYMDVWGKGTTVTVSS VL: EIVLTQSPATLSVSPGERVTLACRASQSLRSKLAWYQQKPGQAPRLLIYDASTRATGFPARFSGSGSGTEFTLTISSLQSEDFAVYYCQQYSNWPRTFGQGTKLEIK	no binding
N5抗体 (N蛋白特异性单克隆抗体N5) (antibody, V domains shown) VH: QVQLVQSGAEVKKPGSSVKVSCKASGGTFSSYAIGWVRQAPGQGLEWMGAIIPIFGTTIFAQKFQGRVTITADESTTTAYMELSSLRSDDTAVYYCARGGGGVERGVILTRWFDPWGQGTLVTVSS VL: QSVLTQPPSVSAAPGQKVTLSCSGSSSNIGNNHVSWYQQLPGTAPKLLIYDNNKRPSGIPDRFSGSKSGTSATLGITGLQTGDEADYYCGTWDNSLSAGVFGGGTKLTVV	no binding
